assay: HNO production determined via N2O quantification (GC headspace analysis); format: physicochemical; conditions: PBS, 37° C., 90 minutes incubation
measure.name: Relative N2O Yield (90 minutes incubation) (%)

cpd.smiles | unit.info | observed
Cc1noc(C)c1S(=O)(=O)NO | % | 35.5
O=C(c1ccc(Cl)c(S(=O)(=O)NO)c1)N1CCC(=NO)CC1 | % | 92
CC(=O)N1CCOc2ccc(S(=O)(=O)NO)cc21 | % | 17
COC(=O)c1ccc(Cl)c(S(=O)(=O)NO)c1 | % | 87
O=S(=O)(NO)c1ccc(O)cc1Cl | % | 28
O=S(=O)(NO)c1ccc(F)c(Cl)c1 | % | 53
